Reported Percent inhibition of MoAb R-4-7 by item:
System: MoAb R-4-7
test method notes: Inhibition ELISA of MoAb R-4-7
Type: binding, mouse
recorded conditions: tissue culture supernatant
Experimental: Inhibition ELISA Protocol 1. Use Falcon® Pro-bind™ inununoplates. 2. Dilute coating antigen to 1 μg/mL in carbonate-bicarbonate buffer. Add 100 μL per well and incubate overnight at 4° C. 3. On the same day prepare inhibiting antigen tubes. Aliquot antibodies into glass test tubes. Prepare appropriate antigen concentration in ethanol and add to aliquoted antibody at 10 μL ethanol solution/250 μL antibody. […] 11. […] Absorbance can be read at 405 nm at approximately 15-min intervals.
State the answer as a number, implicitly in %.

Would you please look over these solved cases?
[
  {
    "compound": "CO[C@H]1C[C@@H]2CC[C@@H](C)[C@@](O)(O2)C(=O)C(=O)N2CCCC[C@H]2C(=O)O[C@H]([C@H](C)C[C@@H]2CC[C@@H](O)[C@H](O)C2)CC(=O)[C@H](C)/C=C(\\C)[C@@H](O)[C@@H](O)C(=O)[C@H](C)C[C@H](C)/C=C/C=C/C=C/1C [M5, 32,41-Demethyl Rapamycin]",
    "recorded value": 87
  },
  {
    "compound": "C=CC[C@@H]1/C=C(\\C)C[C@H](C)C[C@H](OC)[C@H]2O[C@@](O)(C(=O)C(=O)N3CCCC[C@H]3C(=O)O[C@H](/C(C)=C/[C@@H]3CC[C@@H](O)[C@H](OC)C3)[C@H](C)[C@@H](O)CC1=O)[C@H](C)C[C@@H]2OC [FK, FK-506]",
    "recorded value": 4
  },
  {
    "compound": "CO[C@@H]1C[C@H](C[C@@H](C)[C@@H]2CC(=O)[C@H](C)/C=C(\\C)[C@@H](O)[C@@H](OC)C(=O)[C@H](C)C[C@H](C)/C=C/C=C/C=C(\\C)[C@@H](O)C[C@@H]3CC[C@@H](C)[C@@](O)(O3)C(=O)C(=O)N3CCCC[C@H]3C(=O)O2)CC[C@H]1O [M3, 7-O-Demethyl Rapamycin]",
    "recorded value": 67
  }
]

Now examine the next entry.
Entry CO[C@H]1C[C@@H]2CC[C@@H](C)[C@@](O)(O2)C(=O)C(=O)N2CCCC[C@H]2C(=O)O[C@H]([C@H](C)C[C@@H]2CC[C@@H](O)[C@H](O)C2)CC(=O)[C@H](C)/C=C(\C)[C@@H](O)[C@@H](OC)C(=O)[C@H](C)C[C@H](C)/C=C/C=C/C=C/1C [M4, 41-O-Demethyl Rapamycin] : reported Percent inhibition of MoAb R-4-7 = ?
54

Data provenance: patent US6709873B1
